Tested target: 2CC-core
Assay text: SPR, antigen on chip, IgG injected
Reported property: koff (s⁻¹)
Report as a plain number; the unit s⁻¹ is understood.

Sample records with koff:
NIH45-46 (antibody, V domains shown) VH: QVRLSQSGGQMKKPGESMRLSCRASGYEFLNCPINWIRLAPGRRPEWMGWLKPRGGAVNYARKFQGRVTMTRDVYSDTAFLELRSLTSDDTAVYFCTRGKYCTARDYYNWDFEH VL: EIVLTQSPATLSLSPGETAIISCRTSQSGSLAWYQQRPGQAPRLVIYSGSTRAAGIPDRFSGSRWGADYNLSISNLESGDFGVYYCQQYEFFG: 0.000494
3BNC66 (antibody, V domains shown, also called 3BNC66HC; 3bnc66kc) VH: QVQLVQSGAALKKPGASLRISCQTYGYKFTDHLIYWWRQAPGQGLEWIGWIKPETGQPSYSYRFQGRVSLTRDTFEEIAFMDLRGLRSDDTAIYFCARRHTDYCVFDVWGSGSQIIVSS VL: DIQMTQSPSSLSASVGDTVTITCQTNKGYLNWYQQRRGRAPKLLMYDGSKLVTGVPSRLSGRRWGTQYNLTIGSLQPEDIATYYCQVYEFFGPGTRLDLKR: 0.00133

Fill in: koff of 12A12 (antibody, V domains shown, also called 12A12HC; 12a12kc) VH: SQQLVQSGTQVKKPGASVRISCQASGYSFTDYVLHWWRQAPGQGLEWMGWIKPVYGARNYARRFQGRINFDRDIYREIAFMDLSGLRSDDTALYFCARDGSGDDTSWHLDPWGQGTLVIVSA VL: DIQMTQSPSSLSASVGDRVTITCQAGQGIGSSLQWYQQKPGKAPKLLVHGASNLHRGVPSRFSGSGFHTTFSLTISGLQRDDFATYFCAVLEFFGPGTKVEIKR is ___ 1.7e-06
